Molecular target: HSA (Homo sapiens)
Sequence (P02768 25-609): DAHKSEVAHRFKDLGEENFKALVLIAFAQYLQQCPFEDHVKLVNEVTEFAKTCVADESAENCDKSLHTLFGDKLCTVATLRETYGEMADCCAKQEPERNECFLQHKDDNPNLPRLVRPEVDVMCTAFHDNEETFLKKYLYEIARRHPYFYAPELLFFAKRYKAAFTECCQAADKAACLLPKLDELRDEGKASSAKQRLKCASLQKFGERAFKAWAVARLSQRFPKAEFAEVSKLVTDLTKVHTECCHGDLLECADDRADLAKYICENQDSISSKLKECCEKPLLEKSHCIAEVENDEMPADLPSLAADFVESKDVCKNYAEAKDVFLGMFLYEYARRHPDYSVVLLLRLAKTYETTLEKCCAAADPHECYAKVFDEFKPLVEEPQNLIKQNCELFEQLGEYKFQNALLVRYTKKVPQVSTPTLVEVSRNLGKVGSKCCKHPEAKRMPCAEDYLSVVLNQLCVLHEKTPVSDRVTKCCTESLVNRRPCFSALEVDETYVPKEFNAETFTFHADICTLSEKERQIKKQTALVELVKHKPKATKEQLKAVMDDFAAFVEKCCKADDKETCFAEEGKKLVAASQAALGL
Experiment: Albumin binding affinity by surface plasmon resonance
Conditions: human, HSA (human serum albumin), surface plasmon resonance
Square brackets hold non-standard residues; d marks the D form. Ends that are not written are not given here. * marks the point of attachment. FITC = O=C1OC2(c3ccc(O)cc3Oc3cc(O)ccc32)c2ccc(NC(=S)*)cc21; Stearoyl = CCCCCCCCCCCCCCCCCC(=O)*; Palmitoyl = CCCCCCCCCCCCCCCC(=O)*; Myristoyl = CCCCCCCCCCCCCC(=O)*; Aib = CC(C)(N)C(=O)O; Ahx = NCCCCCC(=O)O
experimentalReadout: Kd (µM)
Field format: number, assumed µM, no unit text.

[ask] What does the data say about its Kd? Entry: {FITC-Ahx}-EYEEYK(Myristoyl)EGGGGSGGGGSFNPRH[Aib]EGTFTSDVSSYLEGQAAKEFIAWLVKGRG (N-terminus assumed) [PES16]
[reply] 1.74

[ask] What does the data say about its Kd? Entry: {FITC-Ahx}-EYK(Palmitoyl)EEYEGGGGSGGGGSFNPRH[Aib]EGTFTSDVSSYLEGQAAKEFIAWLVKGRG (N-terminus assumed) [PES08]
[reply] 3.53

[ask] What does the data say about its Kd? Entry: {FITC-Ahx}-K(Myristoyl)EYEEYEGGGGSGGGGSFNPRH[Aib]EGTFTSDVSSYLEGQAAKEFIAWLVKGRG (N-terminus assumed) [PES01]
[reply] 2.66

[ask] What does the data say about its Kd? Entry: {FITC-Ahx}-EYEK(Palmitoyl)EYEGGGGSGGGGSFNPRH[Aib]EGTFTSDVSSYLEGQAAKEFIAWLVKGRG (N-terminus assumed) [PES11]
[reply] 9.33

[ask] What does the data say about its Kd? Entry: {FITC-Ahx}-EK(Myristoyl)YEEYEGGGGSGGGGSFNPRH[Aib]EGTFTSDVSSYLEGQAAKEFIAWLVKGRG (N-terminus assumed) [PES04]
[reply] 26.7

[ask] What does the data say about its Kd? Entry: {FITC-Ahx}-EYEEYEK(Palmitoyl)GGGGSGGGGSFNPRH[Aib]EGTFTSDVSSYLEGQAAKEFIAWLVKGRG (N-terminus assumed) [PES20]
[reply] 16.8

[ask] What does the data say about its Kd? Entry: {FITC-Ahx}-EYEEYEK(Stearoyl)GGGGSGGGGSFNPRH[Aib]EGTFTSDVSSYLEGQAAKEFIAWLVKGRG (N-terminus assumed) [PES21]
[reply] 3.16

[ask] What does the data say about its Kd? Entry: {FITC-Ahx}-EYEK(Myristoyl)EYEGGGGSGGGGSFNPRH[Aib]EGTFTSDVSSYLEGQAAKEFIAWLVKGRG (N-terminus assumed) [PES10]
[reply] 2.54
